Let's look at some compounds and their measured MIC.
- Test system: VRE ATCC 700221 (vanA)
- ASSAY_PROTOCOL: MIC, broth microdilution
- Format: cell-based, enterococci
- CONDITION_DESCRIPTION: VRE ATCC 700221 (vanA)

* N[C@H]1C(=O)N[C@@H]2Cc3ccc(c(Cl)c3)Oc3cc4cc(c3O)Oc3ccc(cc3Cl)[C@@H](O[C@@H]3O[C@H](CO)[C@@H](O)[C@H](O)[C@H]3NC(=O)CCCCCCCCCCCO)[C@@H]3NC(=O)[C@H](NC(=O)[C@@H]4NC(=O)[C@@H](NC2=O)c2cc(O)cc(c2)Oc2cc1ccc2O)c1ccc(O)c(c1)-c1c(O)cc(O)cc1[C@@H](C(=O)O)NC3=O | >16 mg/L
* CCCCCCCC(=O)N[C@H]1[C@H](O[C@@H]2c3ccc(c(Cl)c3)Oc3cc4cc(c3O)Oc3ccc(cc3Cl)C[C@H]3NC(=O)[C@H](N)c5ccc(O)c(c5)Oc5cc(O)cc(c5)[C@H](NC3=O)C(=O)N[C@H]4C(=O)N[C@H]3C(=O)N[C@@H]2C(=O)N[C@H](C(=O)O)c2cc(O)cc(O)c2-c2cc3ccc2O)O[C@H](CO)[C@@H](O)[C@@H]1O | >16 mg/L

Below: the item to evaluate.
In plain terms, CC(=O)N[C@H]1[C@H](O[C@@H]2c3ccc(c(Cl)c3)Oc3cc4cc(c3O)Oc3ccc(cc3Cl)C[C@H]3NC(=O)[C@H](N(C)C)c5ccc(O)c(c5)Oc5cc(O)cc(c5)[C@H](NC3=O)C(=O)N[C@H]4C(=O)N[C@H]3C(=O)N[C@@H]2C(=O)N[C@H](C(=O)O)c2cc(O)cc(O)c2-c2cc3ccc2O)O[C@H](CO)[C@@H](O)[C@@H]1O has a documented MIC of >128 mg/L
